# assayTarget: T1, RXFP1 receptor (UniProt Q9HBX9 1-757, limits assumed)
# T1 sequence (looked up): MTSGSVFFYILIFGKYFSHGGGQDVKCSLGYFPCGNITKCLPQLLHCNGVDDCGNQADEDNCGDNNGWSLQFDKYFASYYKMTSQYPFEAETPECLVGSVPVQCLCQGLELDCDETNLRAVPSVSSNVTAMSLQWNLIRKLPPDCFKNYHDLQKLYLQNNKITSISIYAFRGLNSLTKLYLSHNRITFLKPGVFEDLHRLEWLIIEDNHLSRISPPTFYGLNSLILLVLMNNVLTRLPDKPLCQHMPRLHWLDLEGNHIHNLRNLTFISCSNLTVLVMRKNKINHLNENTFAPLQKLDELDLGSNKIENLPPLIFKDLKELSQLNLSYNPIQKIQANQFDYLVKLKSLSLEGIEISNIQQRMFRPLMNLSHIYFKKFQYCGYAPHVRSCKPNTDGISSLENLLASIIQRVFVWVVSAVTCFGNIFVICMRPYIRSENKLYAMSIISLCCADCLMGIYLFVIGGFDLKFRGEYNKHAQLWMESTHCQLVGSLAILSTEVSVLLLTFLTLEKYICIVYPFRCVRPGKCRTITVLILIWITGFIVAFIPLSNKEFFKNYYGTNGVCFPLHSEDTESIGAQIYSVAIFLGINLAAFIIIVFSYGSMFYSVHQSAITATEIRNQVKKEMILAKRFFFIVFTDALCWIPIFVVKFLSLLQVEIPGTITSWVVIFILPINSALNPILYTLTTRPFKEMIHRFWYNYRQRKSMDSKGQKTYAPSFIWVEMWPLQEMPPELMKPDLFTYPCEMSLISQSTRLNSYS
# assayDetails: cell-based or functional assay
*1 amine or outer side, *2 acyl side, *3 side chain or, on linkers, in order; H or OH if unused. Primed or numbered codes have the meaning given here. Side-chain parts run from the residue outwards. [ ]: non-standard residue; d: D form. The star is where a group is joined. PEG8′ = 2-[2-[2-[2-[2-[2-[2-[2-[2-aminoethoxy]ethoxy]ethoxy]ethoxy]ethoxy]ethoxy]ethoxy]ethoxy]ethoxy]propanoyl; PEG28′ = polyethylene glycol spacer with 28 ethoxy units (aminoethoxy-ethoxy chain); Arachidoyl = CCCCCCCCCCCCCCCCCCCC(=O)*; γGlu = O=C(O)[C@H](CCC(=O)[*:2])N[*:1]; Stearoyl = CCCCCCCCCCCCCCCCCC(=O)*; Palmitoyl = CCCCCCCCCCCCCCCC(=O)*; Nle = CCCC[C@H](N)C(=O)O; PEG2′ = PEG2 spacer unit; Aib = CC(C)(N)C(=O)O
quantityKind: EMax, OVCAR 5 cells (cAMP) (%)
Your answer is read as %, so omit the unit and give the number.

{"columns": ["binder", "EMax, OVCAR 5 cells (cAMP) (%)"],
 "data": [
  ["Ac-LEGREKVRAK(Ac)I[Aib][Aib]EG[Nle]STWS[Aib]RKK(Ac)[PEG28′]K([γGlu-γGlu-γGlu-Stearoyl])-NH2 [peptide of SEQ ID NO: 49]", 106],
  ["Ac-LEGREKVRAK(Ac)I[Aib][Aib]EG[Nle]STWS[Aib]RKK(Ac)[PEG2′][PEG2′][PEG2′][PEG2′][γGlu][γGlu]K([γGlu-Palmitoyl])-NH2 [peptide of SEQ ID NO: 116]", 89]
]}

Fill in EMax, OVCAR 5 cells (cAMP) for record Ac-LEGREKVRAK(Ac)I[Aib][Aib]EG[Nle]STWS[Aib]RKK(Ac)[PEG8′]K([γGlu-γGlu-γGlu-Palmitoyl])-NH2 [peptide of SEQ ID NO: 181]
79

Fill in EMax, OVCAR 5 cells (cAMP) for record Ac-LEGREKVRAK(Ac)I[Aib][Aib]EG[Nle]STWS[Aib]RKK(Ac)K([PEG2′-PEG2′-PEG2′-γGlu-γGlu-γGlu-Arachidoyl])-NH2 [peptide of SEQ ID NO: 171]
83
